target desc: mouse TLR4 (Mus musculus, UniProt Q9JHF9+Q9QUK6)
Construct: host or cells: HEK293 (HEK Blue) cells with NFκB/SEAP reporter
Sequence (Q9QUK6 26-835): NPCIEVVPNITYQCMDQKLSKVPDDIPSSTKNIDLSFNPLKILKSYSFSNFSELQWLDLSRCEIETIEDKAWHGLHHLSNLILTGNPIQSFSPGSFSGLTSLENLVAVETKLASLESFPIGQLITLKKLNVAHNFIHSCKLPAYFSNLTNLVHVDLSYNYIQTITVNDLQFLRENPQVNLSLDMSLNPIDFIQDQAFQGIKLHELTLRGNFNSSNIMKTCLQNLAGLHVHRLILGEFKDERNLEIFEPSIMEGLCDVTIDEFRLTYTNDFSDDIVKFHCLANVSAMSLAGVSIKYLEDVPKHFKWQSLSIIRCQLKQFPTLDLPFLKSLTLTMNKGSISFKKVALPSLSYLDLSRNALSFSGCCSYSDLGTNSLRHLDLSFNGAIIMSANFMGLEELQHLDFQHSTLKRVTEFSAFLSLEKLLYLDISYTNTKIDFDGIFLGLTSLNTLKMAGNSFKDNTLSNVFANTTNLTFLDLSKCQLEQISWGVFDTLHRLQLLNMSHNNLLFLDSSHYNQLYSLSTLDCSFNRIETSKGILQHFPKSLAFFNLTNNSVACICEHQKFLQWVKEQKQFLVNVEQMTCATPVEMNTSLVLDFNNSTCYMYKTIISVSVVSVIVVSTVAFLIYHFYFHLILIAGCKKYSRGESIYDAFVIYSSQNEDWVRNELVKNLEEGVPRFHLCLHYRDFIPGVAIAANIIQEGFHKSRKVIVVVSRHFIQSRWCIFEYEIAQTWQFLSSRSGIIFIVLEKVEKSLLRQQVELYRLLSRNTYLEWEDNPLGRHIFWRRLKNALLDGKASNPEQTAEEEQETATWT
Sequence (Q9JHF9 19-160): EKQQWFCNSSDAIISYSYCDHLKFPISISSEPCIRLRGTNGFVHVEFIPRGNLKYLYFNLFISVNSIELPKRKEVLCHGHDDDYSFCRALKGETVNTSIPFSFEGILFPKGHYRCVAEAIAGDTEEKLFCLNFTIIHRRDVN
method: Murine TLR4 HEK Blue NFκB/SEAP reporter assay
Assay type: cell-based
experimental parameters: mTLR4 HEK transfectoma, 312 nM to 10 μM; Cmpd 1 set at 100
metric: mouse TLR4, area under curve (AUC) values normalized to Cmpd 1

Here are 2 compounds together with their reported answers.
1. CCCCCCCC/C=C\CCCCCCCC(=O)OCC(COP(=O)(O)OCCNC(=O)CSc1nc2c([nH]c3ccccc32)c(=O)n1-c1ccccc1)OC(=O)CCCCCCC/C=C\CCCCCCCC (stereo not drawn)    <1
2. CC(C)(C)NC(=O)CSc1nc2c([nH]c3ccccc32)c(=O)n1-c1ccccc1    <1

The record that follows has no mouse TLR4, area under curve (AUC) values normalized to Cmpd 1 shown yet.
Request: Fill in the blank: the reported mouse TLR4, area under curve (AUC) values normalized to Cmpd 1 of `CCNC(=O)CSc1nc2c([nH]c3ccccc32)c(=O)n1-c1ccccc1` is ____.
Response: <1

---

target desc: human TLR4 (Homo sapiens, UniProt O00206+Q9Y6Y9)
Construct: host or cells: HEK293 (HEK Blue) cells with NFκB/SEAP reporter
Sequence (O00206 24-839): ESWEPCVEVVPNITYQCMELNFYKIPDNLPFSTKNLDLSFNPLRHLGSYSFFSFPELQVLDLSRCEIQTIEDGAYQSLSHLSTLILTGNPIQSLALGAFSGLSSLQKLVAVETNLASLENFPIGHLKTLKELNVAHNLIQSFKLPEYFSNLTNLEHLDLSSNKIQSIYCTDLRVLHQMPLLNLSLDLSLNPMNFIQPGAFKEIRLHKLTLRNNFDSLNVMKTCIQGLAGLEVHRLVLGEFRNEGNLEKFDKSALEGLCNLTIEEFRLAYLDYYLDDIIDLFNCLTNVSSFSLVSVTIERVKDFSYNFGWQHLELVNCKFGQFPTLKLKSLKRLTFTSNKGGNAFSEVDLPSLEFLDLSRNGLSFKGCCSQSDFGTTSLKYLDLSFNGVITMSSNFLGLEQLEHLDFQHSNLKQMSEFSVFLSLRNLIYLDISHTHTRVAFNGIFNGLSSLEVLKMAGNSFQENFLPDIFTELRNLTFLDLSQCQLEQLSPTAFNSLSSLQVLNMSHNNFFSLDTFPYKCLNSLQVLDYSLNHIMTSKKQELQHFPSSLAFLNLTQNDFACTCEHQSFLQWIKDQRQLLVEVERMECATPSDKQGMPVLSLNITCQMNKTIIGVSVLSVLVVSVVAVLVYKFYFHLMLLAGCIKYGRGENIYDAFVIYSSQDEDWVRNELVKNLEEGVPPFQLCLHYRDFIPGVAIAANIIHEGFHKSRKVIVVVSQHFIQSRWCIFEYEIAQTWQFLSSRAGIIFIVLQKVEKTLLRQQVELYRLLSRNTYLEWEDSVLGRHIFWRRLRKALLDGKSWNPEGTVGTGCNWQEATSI
Sequence (Q9Y6Y9 19-160): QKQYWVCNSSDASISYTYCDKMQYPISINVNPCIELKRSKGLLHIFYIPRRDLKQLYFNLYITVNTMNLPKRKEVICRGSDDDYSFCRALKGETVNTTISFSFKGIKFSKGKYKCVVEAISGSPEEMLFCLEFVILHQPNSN
method: Human TLR4 HEK Blue NFκB/SEAP reporter assay
Type: cell-based
experimental parameters: hTLR4 HEK293 transfectoma; all compounds tested at 10 μM; Cmpd 1 set at 100
I'd be grateful if you could share measured human TLR4, values normalized to Cmpd 1 for these entries.

1. O=C(CSc1nc2c([nH]c3ccccc32)c(=O)n1-c1ccccc1)NC1CCCC1    23
2. O=C(CSc1nc2c([nH]c3ccccc32)c(=O)n1-c1ccccc1)NC1CCCCCCC1    64

The record that follows has no human TLR4, values normalized to Cmpd 1 shown yet.
Request: Fill in the blank: the reported human TLR4, values normalized to Cmpd 1 of `O=C(CSc1nc2c([nH]c3ccccc32)c(=O)n1C1CCCCC1)NC1CCCCC1` is ____.
Response: 40

---

target desc: human TLR4 (Homo sapiens, UniProt O00206+Q9Y6Y9)
Construct: host or cells: HEK293 (HEK Blue) cells with NFκB/SEAP reporter
method: Human TLR4 HEK Blue NFκB/SEAP reporter assay
Assay type: cell-based
experimental parameters: hTLR4 HEK293 transfectoma; all compounds tested at 10 μM; Cmpd 1 set at 100
I'd be grateful if you could share measured human TLR4, values normalized to Cmpd 1 for these entries.

Here are 2 compounds together with their reported answers.
1. CCCCCCCC/C=C\CCCCCCCC(=O)OCC(COP(=O)(O)OCCNC(=O)CSc1nc2c([nH]c3ccccc32)c(=O)n1-c1ccccc1)OC(=O)CCCCCCC/C=C\CCCCCCCC (stereo not drawn)    <1
2. O=C(CSc1nc2c([nH]c3ccccc32)c(=O)n1-c1ccccc1)NC1CCNCC1    <1

Request: Fill in the blank: the reported human TLR4, values normalized to Cmpd 1 of `CN(C(=O)CSc1nc2c3ccccc3n(C)c2c(=O)n1-c1ccccc1)C1CCCCC1` is ____.
Response: <1
